# credit: patent US7282508B2

The entries below come with measured melting point values attached.
Enter your answer as a number in °C; do not include the unit.

Reference set, count: 3
>>> result_value("CCOC(=O)N1CCC(c2ccccc2)(c2nccn2Cc2ccc(C(=O)O)cc2)CC1 [Compound 8]")
251.6
>>> result_value("O=C(c1ccccc1)N1CCC(c2ccccc2)(c2nccn2Cc2ccccc2)CC1 [Compound 2]")
122.7
>>> result_value("CCOC(=O)N1CCC(c2ccccc2)(c2nccn2Cc2ccc(C(=O)OC)cc2)CC1 [Compound 3]")
149.1

Consider the record given below.
Query (compound): CCN/C(=N/C#N)N1CCC(c2ccccc2)(c2nccn2Cc2ccccc2)CC1 [Compound 4] ; field requested: melting point
84.2
